Origin of the recorded values: the supplement of paper PMC9112550

Tested on: Escherichia coli TOP10
Assay Overview: shrunken log2 fold change of peptide-encoding DNA abundance (4.5 h post-induction vs induction); higher = less antimicrobial activity (less host growth inhibition)
Condition Label: time post-induction: 4.5 h; library: site-saturation at positions 5, 18, 19, 20
So basically: shrunken log2 fold change at -0.1 or higher? That is rule met. Lower than -0.1? That is rule not met.

>>> group("RRIRVRPPRLPRPRPRPLHFPRP")
"rule not met"

hey, is shrunken log2 fold change for this one >= -0.1? RRIRKRPPRLPRPRPRPYQDPRP
rule met

Please check the record RRIRSRPPRLPRPRPRPSLMPRP and state if its shrunken log2 fold change is at or above -0.1.
rule not met

###

Tested on: Escherichia coli TOP10
Assay Overview: shrunken log2 fold change of peptide-encoding DNA abundance (4.5 h post-induction vs induction); higher = less antimicrobial activity (less host growth inhibition)
Condition Label: time post-induction: 4.5 h; library: site-saturation at positions 5, 18, 19, 20
Note to self: values exactly at 0.08 are fulfilled. So shrunken log2 fold change at or above 0.08 is fulfilled, below is not fulfilled.

Sample answers from the record:
>>> group("RRIRYRPPRLPRPRPRPPIFPRP")
"not fulfilled"
>>> group("RRIRSRPPRLPRPRPRPTFCPRP")
"fulfilled"
>>> group("RRIRERPPRLPRPRPRPEGNPRP")
"not fulfilled"

Reported shrunken log2 fold change at or above 0.08? RRIRGRPPRLPRPRPRPIAFPRP
fulfilled

Could you verify whether the entry RRIRWRPPRLPRPRPRPSMSPRP shows shrunken log2 fold change of no less than 0.08?
not fulfilled

Check this sequence for shrunken log2 fold change at or above 0.08: RRIRQRPPRLPRPRPRPCIWPRP
not fulfilled

In plain terms: is recorded shrunken log2 fold change at least 0.08 for RRIRQRPPRLPRPRPRPRPGPRP ?
fulfilled

Can RRIRARPPRLPRPRPRPEIPPRP be said to have shrunken log2 fold change at or above 0.08?
fulfilled

Test whether the sequence RRIRKRPPRLPRPRPRPHKWPRP records shrunken log2 fold change of 0.08 or higher.
not fulfilled

Decide: is the reported value of shrunken log2 fold change for RRIRRRPPRLPRPRPRPMMPPRP equal to or greater than 0.08?
fulfilled

###

Tested on: Escherichia coli TOP10
Assay Overview: shrunken log2 fold change of peptide-encoding DNA abundance (4.5 h post-induction vs induction); higher = less antimicrobial activity (less host growth inhibition)
Condition Label: time post-induction: 4.5 h; library: site-saturation at positions 5, 18, 19, 20
The reader will find reported shrunken log2 fold change values listed item by item below.
Answer using only a numeral; do not append any unit.

Answered examples (8):
>>> observed_result("RRIRYRPPRLPRPRPRPEYGPRP")
-0.249
>>> observed_result("RRIRYRPPRLPRPRPRPALAPRP")
0.194
>>> observed_result("RRIRERPPRLPRPRPRPVTLPRP")
-0.289
>>> observed_result("RRIRSRPPRLPRPRPRPFWHPRP")
-0.0146
>>> observed_result("RRIRERPPRLPRPRPRPVVWPRP")
0.33
>>> observed_result("RRIRYRPPRLPRPRPRPETGPRP")
-0.0691
>>> observed_result("RRIRYRPPRLPRPRPRPAYAPRP")
-0.236
>>> observed_result("RRIRWRPPRLPRPRPRPDHHPRP")
-0.445

Proceed to the following item.
Reported shrunken log2 fold change, sequence RRIRWRPPRLPRPRPRPFLEPRP : ____
0.0541

###

System: Escherichia coli TOP10
Assay Overview: shrunken log2 fold change of peptide-encoding DNA abundance (4.5 h post-induction vs induction); higher = less antimicrobial activity (less host growth inhibition)
Condition Label: time post-induction: 4.5 h; library: site-saturation at positions 5, 18, 19, 20
Recorded measurements of shrunken log2 fold change, one per entry
Form: value (number only, do not type unit).

>>> observed_result("RRIRGRPPRLPRPRPRPFTKPRP")
-0.282
>>> observed_result("RRIRQRPPRLPRPRPRPRVAPRP")
0.337
>>> observed_result("RRIRARPPRLPRPRPRPYLQPRP")
-0.276
>>> observed_result("RRIRFRPPRLPRPRPRPDWYPRP")
-0.0899
>>> observed_result("RRIRCRPPRLPRPRPRPEHMPRP")
-0.201
>>> observed_result("RRIRDRPPRLPRPRPRPQECPRP")
0.0795

Give the measured shrunken log2 fold change of RRIRYRPPRLPRPRPRPVHQPRP .
-0.0229

###

Tested on: Escherichia coli TOP10
Assay Overview: shrunken log2 fold change of peptide-encoding DNA abundance (4.5 h post-induction vs induction); higher = less antimicrobial activity (less host growth inhibition)
Condition Label: time post-induction: 4.5 h; library: site-saturation at positions 5, 18, 19, 20
# maps each entry to its shrunken log2 fold change

>>> observed_result("RRIRRRPPRLPRPRPRPCACPRP")
-0.0784
>>> observed_result("RRIRVRPPRLPRPRPRPVELPRP")
0.104
>>> observed_result("RRIRMRPPRLPRPRPRPEAMPRP")
0.204
>>> observed_result("RRIRRRPPRLPRPRPRPDMVPRP")
0.206
>>> observed_result("RRIRPRPPRLPRPRPRPEIKPRP")
0.0782

Below: the item to evaluate.
GET /values?readout=shrunken log2 fold change&system=Escherichia coli TOP10&item= RRIRYRPPRLPRPRPRPLHVPRP
-0.21

###

Test system: Escherichia coli TOP10
Assay Overview: shrunken log2 fold change of peptide-encoding DNA abundance (4.5 h post-induction vs induction); higher = less antimicrobial activity (less host growth inhibition)
Condition Label: time post-induction: 4.5 h; library: site-saturation at positions 5, 18, 19, 20
Recorded Endpoint: shrunken log2 fold change
Simply state the number, no unit and no words.

Study these solved cases before continuing.
>>> observed_result("RRIRHRPPRLPRPRPRPSGLPRP")
0.0123
>>> observed_result("RRIRCRPPRLPRPRPRPDMTPRP")
-0.00325
>>> observed_result("RRIRRRPPRLPRPRPRPFWDPRP")
-0.0897

// switching to the query sequence
Requested read-out: shrunken log2 fold change. Entry: RRIRCRPPRLPRPRPRPIHVPRP
-0.377

###

Tested on: Escherichia coli TOP10
Assay Overview: shrunken log2 fold change of peptide-encoding DNA abundance (4.5 h post-induction vs induction); higher = less antimicrobial activity (less host growth inhibition)
Condition Label: time post-induction: 4.5 h; library: site-saturation at positions 5, 18, 19, 20
Classification by shrunken log2 fold change | ranges: bucket A = under -0.02, bucket B = from -0.02 up to 0.4, bucket C = 0.4 and over

Below are worked cases with known answers.
>>> group("RRIRARPPRLPRPRPRPRDHPRP")
"bucket B"
>>> group("RRIRVRPPRLPRPRPRPAHTPRP")
"bucket B"
>>> group("RRIRVRPPRLPRPRPRPLCRPRP")
"bucket A"
>>> group("RRIRLRPPRLPRPRPRPTFLPRP")
"bucket A"
>>> group("RRIRRRPPRLPRPRPRPRQKPRP")
"bucket C"

Sort into band: RRIRWRPPRLPRPRPRPWVVPRP
bucket C

###

Test system: Escherichia coli TOP10;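 note: peptides expressed intracellularly from a pBAD plasmid library in pooled LB shake-flask culture, induced with 0.3% L-arabinose, DNA abundance read by NGS, three biological replicates, DESeq2 with apeglm shrinkage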
Assay Overview: shrunken log2 fold change of peptide-encoding DNA abundance (4.5 h post-induction vs induction); higher = less antimicrobial activity (less host growth inhibition)
Condition Label: time post-induction: 4.5 h; library: site-saturation at positions 5, 18, 19, 20
Answer false if shrunken log2 fold change is under 0.04, and true if it is 0.04 or more.

Use the examples below as a reference point.
>>> group("RRIRYRPPRLPRPRPRPEIRPRP")
"false"
>>> group("RRIRLRPPRLPRPRPRPHPFPRP")
"true"
>>> group("RRIRDRPPRLPRPRPRPTYEPRP")
"true"
>>> group("RRIRRRPPRLPRPRPRPMDRPRP")
"true"

Item RRIRGRPPRLPRPRPRPCNSPRP with shrunken log2 fold change of 0.04 or above?
false

Could you tell me if the measured shrunken log2 fold change of RRIRDRPPRLPRPRPRPPDFPRP reaches 0.04 or more?
true

State whether the measured shrunken log2 fold change reaches 0.04, counting equality as reaching it, for RRIRCRPPRLPRPRPRPMKMPRP
false

Would you say RRIRARPPRLPRPRPRPMIPPRP shows shrunken log2 fold change at minimum 0.04?
false

Is reported shrunken log2 fold change greater than or equal to 0.04 here: RRIRGRPPRLPRPRPRPRKMPRP
true

Please check the record RRIRQRPPRLPRPRPRPTWHPRP and state if its shrunken log2 fold change is at or above 0.04.
true

Hi team, for RRIRQRPPRLPRPRPRPSGRPRP , is the recorded shrunken log2 fold change at or above 0.04?
true

Check the entry RRIRLRPPRLPRPRPRPKFTPRP : does shrunken log2 fold change equal or exceed 0.04?
false

Say whether RRIRLRPPRLPRPRPRPMINPRP shows shrunken log2 fold change of 0.04 or more.
false

Identify whether the reported shrunken log2 fold change of the following sequence is 0.04 or greater: RRIRVRPPRLPRPRPRPKYDPRP
false

Hi, just wondering whether RRIRSRPPRLPRPRPRPDDTPRP shows shrunken log2 fold change of 0.04 or higher.
false
